Method description: blockers of Gli reporter signaling – luciferase luminescence, Sufu-KO-LIGHT cells, uHTS, primary screen (AID 588413);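 further: 0% = DMSO-treated cells and 100% = wells with medium but no cells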
Study conditions: Sufu-KO-LIGHT fibroblasts, at 5 µM, stronger effect = higher value
In all, about 340,000 compounds went through this assay and about 2,500 (0.74%) were called active. The sample as a whole holds a higher share of actives than the screen did.
Recorded inhibition by entry
Measured attribute: inhibition (%)

>  <Compound>
COc1ccc(NC(=O)c2cn(CCC#N)nc2-c2ccc([N+](=O)[O-])cc2)cc1

>  <Unit string>
%

>  <Meas value>
6.35

$$$$
>  <Compound>
CCOc1ccc(-c2cc(C)[n+](CCN(CC)CC)c(-c3ccc(OCC)cc3)c2)cc1

>  <Unit string>
%

>  <Meas value>
77.8

$$$$
>  <Compound>
CCCCCCCCCCCCn1ccc(=N)cc1

>  <Unit string>
%

>  <Meas value>
87.5

$$$$
>  <Compound>
O=C(C1CC(=O)N(C2CCCC2)C1)N1CCC2(CC1)OCCO2 (stereo not given)

>  <Unit string>
%

>  <Meas value>
-2.84

$$$$
>  <Compound>
CC(=O)OC1C2(CC3N4C(=O)C5(CO)SSC4(CC31O)C(=O)N5C)OC(C)C(C)(C)C2=O (stereo not given)

>  <Unit string>
%

>  <Meas value>
85.7

$$$$
>  <Compound>
CCC(C)(O)C(=O)OC1C(=O)OC2CC3C(C)=CC(=O)C(O)C3(C)C3C4(O)OCC23C1C(C)C4O (stereo not given)

>  <Unit string>
%

>  <Meas value>
82

$$$$
>  <Compound>
COc1cc(-n2c(=S)[nH]c3ccc(C)cc3c2=O)c(Cl)cc1Cl

>  <Unit string>
%

>  <Meas value>
-14.6

$$$$
>  <Compound>
CC(C)CN1CCN(Cc2ccccc2C(F)(F)F)CC1CCO (stereo not given)

>  <Unit string>
%

>  <Meas value>
20.7

$$$$
>  <Compound>
CCOc1cccc(=NC2CCCCC2)c2c(C)[nH]c(C)c12

>  <Unit string>
%

>  <Meas value>
79

$$$$
>  <Compound>
C=CCN(CC=C)C(=O)Nc1ccc(OCC)cc1

>  <Unit string>
%

>  <Meas value>
-12.4

$$$$
